- measurement-protocol: Olaparib sustained in cultured TNBC cells, LC-MS/MS (half-life)
- Type: in vitro ADME, human
- reported-conditions: human, TNBC cells PDC No. 9, PDC No. 9, Control (Table 4); read-out: Half-life values of olparib (t1/2) (converted)
measure-name: half-life at 1 μmol/L

- O=C(c1cc(Cc2n[nH]c(=O)c3ccccc23)ccc1F)N1CCN(C(=O)C2CC2)CC1: 36.3 h

----------
- measurement-protocol: Olaparib sustained in subcutaneous TNBC tumors after intratumoral injection, LC-MS/MS (half-life)
- Assay type: in vivo, nude mice
- reported-conditions: nude, mouse, subcutaneous tumor tissue, other: injected into the subcutaneous tumors (intratumoral), PDC No. 7, Control; read-out: Half life values of olaparib (t1/2) In subcutaneous tumors (converted)
- Protocol: TNBC cells transfected with plasmids were used for the pharmacokinetic experiments to examine the amount of olaparib sustained in the cells. For the cell-based experiments, cells were treated with 1 μmol/L concentration of olaparib for 12 h[33]. Then, cells were harvested at indicated time-points. […] The sustaining rates of olaparib were calculated as (the amount of olaparib at each time)/(the amount of olaparib at 0-time) × 100%. […]
measure-name: half-life

- O=C(c1cc(Cc2n[nH]c(=O)c3ccccc23)ccc1F)N1CCN(C(=O)C2CC2)CC1 [olaparib]: 31.4 h

----------
- measurement-protocol: Olaparib sustained in cultured TNBC cells, LC-MS/MS (half-life)
- Type: in vitro ADME, human
- reported-conditions: human, TNBC cells PDC No. 3, PDC No. 3, FBI-1 (Table 3); read-out: Half life values of olaparib (t1/2) In cultured cells (converted)
measure-name: half-life at 1 μmol/L (h)

* O=C(c1cc(Cc2n[nH]c(=O)c3ccccc23)ccc1F)N1CCN(C(=O)C2CC2)CC1 | 11.7

----------
- Test system: MDA-MB-436
- measurement-protocol: Cell-survival SRB assay
- Assay type: cell-based
- reported-conditions: Homo sapiens, MDA-MB-436, 48 h, MDA-MB-436, miR-30c, 48 h; read-out: The IC50 values of olaparib
pIC50: −log10 of the molar value.
measure-name: pIC50

- O=C(c1cc(Cc2n[nH]c(=O)c3ccccc23)ccc1F)N1CCN(C(=O)C2CC2)CC1: 7.00

----------
- measurement-protocol: Olaparib sustained in cultured TNBC cells, LC-MS/MS (half-life)
- Type: in vitro ADME, human
- reported-conditions: human, HCC-1937 TNBC cells, HCC-1937, siFBI-1; read-out: half life values of olaparib (t1/2) (converted)
- Method: TNBC cells transfected with plasmids were used for the pharmacokinetic experiments to examine the amount of olaparib sustained in the cells. For the cell-based experiments, cells were treated with 1 μmol/L concentration of olaparib for 12 h[33]. Then, cells were harvested at indicated time-points. […] The sustaining rates of olaparib were calculated as (the amount of olaparib at each time)/(the amount of olaparib at 0-time) × 100%. […]
measure-name: half-life at 1 μmol/L (h)

* O=C(c1cc(Cc2n[nH]c(=O)c3ccccc23)ccc1F)N1CCN(C(=O)C2CC2)CC1 | 50.2

----------
- measurement-protocol: Olaparib sustained in subcutaneous TNBC tumors after intratumoral injection, LC-MS/MS (half-life)
- Assay type: in vivo, nude mice
- reported-conditions: nude, mouse, subcutaneous tumor tissue, other: injected into the subcutaneous tumors (intratumoral), PDC No. 2, siFBI-1; read-out: Half life values of olaparib (t1/2) In subcutaneous tumors (converted)
- Procedure: TNBC cells transfected with plasmids were used for the pharmacokinetic experiments to examine the amount of olaparib sustained in the cells. For the cell-based experiments, cells were treated with 1 μmol/L concentration of olaparib for 12 h[33]. Then, cells were harvested at indicated time-points. […] The sustaining rates of olaparib were calculated as (the amount of olaparib at each time)/(the amount of olaparib at 0-time) × 100%. […]
measure-name: half-life (h)

• O=C(c1cc(Cc2n[nH]c(=O)c3ccccc23)ccc1F)N1CCN(C(=O)C2CC2)CC1 = 53.7
